From: patent US20250163127A1

- testSystem: CD28 (human) (UniProt P10747)
- assaySummary: flow cytometry, Jurkat cells (CD28)
observedProperty: Fold change to WT CD80 (fold)

Example entries begin here.
variant CD80 E35D/M47I/L85Q/D90G (Fc fusion) VIHVTKEVKEVATLSCGHNVSVEELAQTRIYWQKDKKMVLTMMSGDINIWPEYKNRTIFDITNNLSIVILALRPSDEGTYECVVQKYEKGAFKREHLAEVT ... 0.23
variant CD80 E35D/L85Q/K93T/E95V/L97Q (Fc fusion) VIHVTKEVKEVATLSCGHNVSVEELAQTRIYWQKDKKMVLTMMSGDMNIWPEYKNRTIFDITNNLSIVILALRPSDEGTYECVVQKYEKDAFTRVHQAEVT ... 0.02
variant CD80 E35D/T41S/M43V/M47I/L70M/A71G (Fc fusion) VIHVTKEVKEVATLSCGHNVSVEELAQTRIYWQKDKKMVLSMVSGDINIWPEYKNRTIFDITNNLSIVIMGLRPSDEGTYECVVLKYEKDAFKREHLAEVT ... 0.15
variant CD80 Q27H/E35D/M47I/L85Q/D90G (Fc fusion) VIHVTKEVKEVATLSCGHNVSVEELAHTRIYWQKDKKMVLTMMSGDINIWPEYKNRTIFDITNNLSIVILALRPSDEGTYECVVQKYEKGAFKREHLAEVT ... 0.19
variant CD80 R29H/E35D/M43V/M47I/I49V (Fc fusion) VIHVTKEVKEVATLSCGHNVSVEELAQTHIYWQKDKKMVLTMVSGDINVWPEYKNRTIFDITNNLSIVILALRPSDEGTYECVVLKYEKDAFKREHLAEVT ... 0.02
variant CD80 Q33L/E35D/M47I/N48D/A71G (Fc fusion) VIHVTKEVKEVATLSCGHNVSVEELAQTRIYWLKDKKMVLTMMSGDIDIWPEYKNRTIFDITNNLSIVILGLRPSDEGTYECVVLKYEKDAFKREHLAEVT ... 0.04
variant CD80 E35D/M47I/T62S/L85Q (Fc fusion) VIHVTKEVKEVATLSCGHNVSVEELAQTRIYWQKDKKMVLTMMSGDINIWPEYKNRTIFDISNNLSIVILALRPSDEGTYECVVQKYEKDAFKREHLAEVT ... 0.1
variant CD80 E35D/D46E/M47V/N63D/L85Q (Fc fusion) VIHVTKEVKEVATLSCGHNVSVEELAQTRIYWQKDKKMVLTMMSGEVNIWPEYKNRTIFDITDNLSIVILALRPSDEGTYECVVQKYEKDAFKREHLAEVT ... 0.07

I = variant CD80 E35D/M47V/N48K/V68M/K89N (Fc fusion) VIHVTKEVKEVATLSCGHNVSVEELAQTRIYWQKDKKMVLTMMSGDVKIWPEYKNRTIFDITNNLSIMILALRPSDEGTYECVVLKYENDAFKREHLAEVT
II = variant CD80 E35D/M47L/A71G/L85M/F92Y (Fc fusion) VIHVTKEVKEVATLSCGHNVSVEELAQTRIYWQKDKKMVLTMMSGDLNIWPEYKNRTIFDITNNLSIVILGLRPSDEGTYECVVMKYEKDAYKREHLAEVT
Which value of Fold change to WT CD80 is numerically greater: that of I or that of II ? In your reply, give the label of the chosen option. I
(I: 0.65 fold, II: 0.14 fold)
